The entries below are paired with their reported normalized analyte binding to RBD2 held by the immobilized ligand.
molecular target: SARS-CoV-2 spike protein receptor binding domain (RBD2) (SARS-CoV-2, UniProt P0DTC2 319-537); experiment: SPR sandwich binning, ligand E01
The answer should be written as a number, with no unit following it.

Worked cases, normalized analyte binding to RBD2 held by the immobilized ligand given:
binder	readout_number
G07 IgG1 (antibody, V domains shown) VH: QVQLVQSGAEVKKPGESLKISCKGSGYSFTSYWIGWVRQMPGKGLEWMGIIYPGDSDIRYSPSFQGQVTISADKSFSSAYLQWSSLKASDTAMYYCARLGATGAFDIWGQGTTVTVSS VL: QSVLIQPPSASGTPGQRVTISCSGSNSNFGSNSVSWYQQRPGTAPKLLIEGNNQRPSGVPERFSGSKSGTSASLAISGLQSEDEAEYSCASWDDSLNAFVFGPGTKLTVL	1.57
B04 IgG1 (antibody, V domains shown) VH: QVQLVESGAEVKKPGASVKVSCKASGYTFTRYYMHWVRQAPGQGLEWMGIINPSGGTTSYAQKFQGRVTMTRDTSTSTVYMELSSLRSEDTAVYYCARSFGELTSFDYWGQGTLVTVSS VL: SYVLTQPPSVSVAPGKTARITCGGNNIGIRSVHWYQQKPGQAPVLVIYYDSDRPSGIPERFSGSKSGNTATLTISRVEAGDEADYYCQVWDSSSDHPVFGGGTKLTVL	-0.15
E01 IgG1 (antibody, V domains shown, also called E1) VH: QVQLQQWGAGLLKPSETLSLKCAVYGGSFSGYYWGWIRQSTGKGLEWIGEINRSGSTNYNPSLKSRVTISVDTSKNQFSLKLSSVTAADTAVYYCARGGARYYYGSGSYRSTPRPYYFDYWGQGTLVTVSS VL: SYELTQPPSVSVAPGETARITCGGDNIGRRHVHWYQQKPGQAPVLVIYDDSDRPSGIPDRFSGSNSGNTATLTIGRVEAGDEADYYCQVWGSSNDPHVFGTGTKLTVL	-0.07
S01 IgG1 (antibody, V domains shown, also called 501) VH: QVQLVESGGGLVKPGGSLRLSCAASGFTVGSNYMSWVRQAPGKGLEWVSVIYSGGSTYYADSVKGRFTISRDNSKNTLYLQMNSLRAEDTAVYYCARGSSGAWYFDLWGRGTLVTVSS VL: EIVMTQSPSSLSASVGDSVTITCQASQDISNYLNWYQQKPGKAPKLLIYDASNLETGVPSRFSGGGSGTDFTLTITSLQPEDIATYYCQQYDNFPPTFGPGTKVDIK	-0.13

Input: Consider the binder H01 IgG1 (antibody, V domains shown, also called H1) VH: QVTLKESGPVLVKPTETLTLTCTVSGFSLSNARMGVSWIRQPPGKALEWLAHIFSNGEKSYSTSLKSRLTISKDTSKSQVVLTMTNMDPVDTATYYCARTLDYYDSSGYLVGGAFDIWGQGTMVTVSS VL: QPGLTQPPSVSLAPGQTARITCGGNNIGSKSVHWYQQKPGQAPVLVVYDDSDRPSGIPERFSGSNAGNTATLTISRVEAGDEADYYCQVWDSRSDQYVFGTRTKLTVL and give its measured normalized analyte binding to RBD2 held by the immobilized ligand.
Output: 0.41

Input: Let us now turn to H05 IgG1 (antibody, V domains shown, also called H5; HO5) VH: QVQLVQSGAEVKKPGSSVKVSCKASGGTFSSYAISWVRQAPGQGLEWMGGIIPIFGTANYAQKFQGRVTITADESTSTAYMELSSLRSEDTAVYYCARSIFGVVIISHADGYYYGMDVWGQGTTVTVSS VL: SYVLTQPPSVSVAPGQTARITCGANNIGRISVHWYQQKPGQAPVLVVYDDSDRPSGIPERFSGSNFGNTATLTISRVEAGDEADYYCQVWDSYSDHVIFGGGTKLTVL
Output: 1.81

Input: Let us now turn to F07 IgG1 (antibody, V domains shown) VH: QVQLVQSGAEVKKPGSSVRVSCKVSGYTFTGYYMHWVRQAPGQGLEWMGIINPSGGSTSYAQKFQGRVTMTRDTSTSTVYMELSSLRSEDTAVYYCARVRVGASDAFDIWGQGTMVTVSS VL: SYVLTQPPSVSVAPGQTARITCGGNNIGSKSVHWYQQKPGQAPVLVVYDDSDRPSGIPERFSGSNSGNTATLIISRVEAGDEADYYCQVWDSSSVHYVFGTGTKLTVL
Output: 1.9

Input: Let us now turn to E08 IgG1 (antibody, V domains shown) VH: QVQLVQSGAEVKKPGSSVKVSCKASGGTFSSYAISWVRQAPGQGLEWMGGIIPIFGTANYAQKFQGRVTITADESTSTAYMELSSLRSEDTAVYYCARASGRWLQFWHYYGMDVWGQGTTVTVSS VL: SYVLTQPPSVSVAPGKTARITCGGNNIGWKSVHWYQQKPGQAPVLVVYDDSDRPSGIPERFSGSNSGNTATLTISRVEAGDEADYYCQVWDSSSDLVVFGGGTKLTVL
Output: 2.15
